Molecular target: SARS-CoV PLpro (Severe acute respiratory syndrome coronavirus, UniProt P0C6U8)
recorded.endpoint: pKi
// scale note: pKi = -log10(conc_M); give the bare number

Need pKi, item Nc1nc2nc[nH]c2c(=S)[nH]1
4.89

----------
# Lookup of reported IC50 keyed by entry
Target: SARS-CoV PLpro (Severe acute respiratory syndrome coronavirus, UniProt P0C6U8)
Reply numerically in µM, unit not repeated.

Some molecules with recorded IC50:
{"columns": ["molecule", "endpoint.unit", "measurement"],
 "data": [
  ["CCN1C(=O)C=CC1=O [compound 6, N-ethylmaleimide]", "µM", 4.4],
  ["Nc1nc2nc[nH]c2c(=S)[nH]1 [compound 2, 6-Thioguanine]", "µM", 5]
]}

Let's switch to this molecule now.
Look up IC50 with SARS-CoV PLpro (Severe acute respiratory syndrome coronavirus, UniProt P0C6U8) for this molecule: Sc1ncnc2nc[nH]c12 [compound 1, 6-Mercaptopurine]
21.6
